B1: HDV Ribozyme (parent)
chain: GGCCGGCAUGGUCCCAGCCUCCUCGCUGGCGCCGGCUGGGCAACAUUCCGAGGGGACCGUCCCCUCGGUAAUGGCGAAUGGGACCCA

- Variants of: B1
- assayName: self-cleavage, relative activity (ratio to wild type); higher = more cleavage; co-transcriptional
Record form. Attribute: self-cleavage. Fill in for each entry.
Note: the reply should be a number with no unit written.

Problem: Name the reported self-cleavage value associated with the variant G39U C57G
Solution: 0.786

Problem: Looking for the measured self-cleavage of C3U C18U , can you help?
Solution: 0.43

Problem: Could you tell me which self-cleavage is on file for C7U C41A ?
Solution: 0.571

Problem: Name the reported self-cleavage value associated with the variant U27C A78U
Solution: 0.297

Problem: Reported self-cleavage for C22U G68C : what is it?
Solution: 0.345

Problem: Look at this variant and give its reported self-cleavage. C14U C86A
Solution: 1.1

Problem: Give the measured self-cleavage of G10U G53C .
Solution: 0.773

Problem: GET /values?readout=self-cleavage&item= C15A C19A
Solution: 0.147

Problem: May I ask what self-cleavage has been recorded for C15G G68U ?
Solution: 0.369

Problem: // self-cleavage lookup, key: C7G
Solution: 0.315

Problem: What value of self-cleavage has been reported for the following variant? G28C G55A
Solution: 0.18

Problem: Data request, read-out self-cleavage, for C22A G35C
Solution: 0

Problem: Bench note: what self-cleavage did G2A G40A show?
Solution: 0.136

Problem: Please give the measured self-cleavage for this variant: U27A G35C
Solution: 0.201

These data points were gathered from the RNAGym collection of RNA variant scans (doi:10.7554/elife.80360).
